Test system: UACC-62 melanoma
TEST DETAILS: NCI tumour cell line growth inhibition, 48 h; in the data active means GI50 below about 0.43 µM; inactive means the rest
Could you please pick one outcome from this set? T for active, F for inactive

Problem: Just curious, what result did COC1(CC[C@H](C)COC2OC(CO)C(O)C(O)C2O)O[C@H]2C[C@H]3[C@@H]4CC=C5C[C@@H](OC6OC(CO)C(OC7OC(C)C(O)C(O)C7O)C(O)C6OC6OC(C)C(O)C(O)C6O)CC[C@]5(C)[C@H]4CC[C@]3(C)[C@H]2[C@@H]1C (stereo partly drawn) get here?
Result: F

Problem: Try this compound next: Nc1cccc2c1C(=O)c1cccc(NC(=O)c3ccccc3)c1C2=O
Result: T

Problem: And then CCN(CC)CCCCNc1c2ccc(Cl)cc2nc2ccc(OC)cc12 , what is it?
Result: F

Problem: Try this compound next: CS(=O)(=O)N(c1cc(-c2ccc3ncnc(Nc4ccc(F)c(Cl)c4)c3c2)cnc1Cl)S(C)(=O)=O
Result: F

Problem: Quick one: CC[C@H](C)[C@H](NC(=O)c1cccn1C)C(=O)N(C)[C@H](C[C@@H](OC(C)=O)c1nc(C(=O)N[C@@H](Cc2ccccc2)C[C@H](C)C(=O)OC)cs1)C(C)C
Result: T

Problem: Same question, CCC[CH2][Sn]1([CH2]CCC)[S]CC[N]1S(=O)(=O)c1ccc(C)cc1 this time
Result: F

Problem: Similarly, N#Cc1cccc(C2C3=C(COC3=O)N(CCO)c3cc4c(cc32)OCO4)c1 (stereo not drawn) ?
Result: F

Problem: How about O=C1N=C(Nc2nc(-c3csc(NC4=NC(=O)/C(=C\c5ccccc5)S4)n3)cs2)S/C1=C/c1ccccc1 ?
Result: F

---

Tested on: COLO 205 colon
TEST DETAILS: NCI tumour cell line growth inhibition, 48 h
READOUT LABEL: TGI

Problem: Query: TGI; subject: Cc1cc(S(=O)(=O)N=C2Nc3cccc4cccc(c34)N2)c(S)cc1Cl
Result: > 100 µM

Problem: Continue with O=C1CSC(c2c[nH]c3ccccc23)N1c1ccc(Cl)cc1Cl (stereo unspecified)
Result: > 100 µM

Problem: Please answer likewise for O=C1Nc2cc(F)ccc2C1=O
Result: > 100 µM

Problem: Again, but for CO[P@@]1(=O)O[C@@H](c2ccccc2)[C@H](O)[C@]1(O)c1ccccc1
Result: > 100 µM

Problem: Let us now turn to O=C(c1ccco1)N(C(=O)N1CCC(c2ccccc2)CC1)c1ccccc1
Result: > 100 µM

Problem: Query CCOC(=O)/C=C/c1cccc(F)c1 next
Result: > 100 µM

Problem: How about CCN(CC)CCCCNc1c2ccc(Cl)cc2nc2ccc(OC)cc12 ?
Result: 1.32 µM

Problem: Quick one: CC(C)c1ccc(NC(=O)Cc2ccc(Nc3ncnc4cc(-c5cnn(CCN(C)C)c5)ccc34)cc2)cc1
Result: 1.83 µM

Problem: Now consider CC(=N/NC(=S)N(C)C)/C(=N\NC(=S)N(C)C)c1ccccc1 .
Result: 3.33 µM

Problem: Next compound up: COc1ccc(C2c3cc4c(cc3OC(Nc3ccccc3)C2C)OCO4)cc1 (stereo unspecified)
Result: > 100 µM

Problem: // next record COCCNc1cncc(C(N)=O)c1
Result: > 100 µM

Problem: What do you have for CC1(C)OCC(C2OC(C)(C)OC2[C@H]2O[C@@]3(O)[C@H]4[C@H](C=CC[C@@H]42)[C@@H](OCc2ccccc2)[C@H](OCc2ccccc2)[C@H]3OCc2ccccc2)O1 (stereo partly specified) ?
Result: > 100 µM

Problem: Now try O=C(/C=C/C12c3ccccc3C(c3ccccc31)C1C(=O)NC(=O)C12)c1ccccc1 (stereo unspecified) .
Result: 4.03 µM

Problem: Now the same for CN1c2ccccc2C2=C(c3ccccc3)CC[C@@H](C(=O)N3C4CC5CC[C@@]4(CS3(=O)=O)C5(C)C)[C@@H]21 (stereo partly specified)
Result: > 100 µM

Problem: How about CC(C)(C)/C(O)=C\c1nc2cc(F)c(F)cc2[nH]c1=O ?
Result: > 100 µM

Problem: Param item: COc1cc2cnc3c4cc(OCc5ccccc5)ccc4ccc3c2cc1OC
Result: 74.9 µM

Problem: Same question for C[C@@H]1CC[C@@]2(NC1)O[C@H]1C[C@H]3[C@@H]4CC[C@H]5C[C@@H](O)CC[C@]5(C)[C@H]4CC[C@]3(C)[C@H]1[C@@H]2C please.
Result: > 100 µM

Problem: Try the compound CCOC(=O)c1c(-c2ccccc2)c(OC)cn1C
Result: > 10 µM

Problem: Proceed to COc1ccc(S(=O)(=O)N(C(C)=O)c2ccccc2/C=C/c2cc[n+]([O-])cc2)cc1
Result: 2.3 µM

Problem: How about Cc1cn(S(=O)(=O)c2ccccc2)c2c(OCc3ccccc3)cc(NC(=O)c3cc4cc([N+](=O)[O-])ccc4s3)cc12 ?
Result: > 100 µM

Problem: Same thing, different compound: COc1cc(/C=C2\CCCC3=C2N=C2SC(C)=NN2C3c2cc(OC)c(OC)c(OC)c2)cc(OC)c1OC (stereo unspecified)
Result: > 100 µM

Problem: Cool, now CC1=CCCC2C(C=O)(C1)CC(C)C2(CO)CC/C(=C/CO)CO (stereo unspecified)
Result: > 100 µM

Problem: Same question, COc1cc2c(cc1OCc1ccccc1)NC(=O)[C@@H]1CCCN1C2=O this time
Result: > 100 µM

Problem: Moving on to the next compound: N#CC1=C(N)NC(=O)NC12Nc1ccccc1N2
Result: > 100 µM

Problem: Entry to check: COC(=O)N/N=C(\C)CC(=O)Nc1ccc(Cl)cc1
Result: > 100 µM

Problem: Then NC(Cc1ccccc1)c1nccs1 (stereo unspecified) ?
Result: > 100 µM

Problem: Input C=CN(C=C)C(=O)Cn1cc(-c2ccccc2)nn1
Result: > 100 µM

Problem: Record: CO/N=C(\COc1ccc2oc(-c3ccccc3)cc(=O)c2c1)c1ccc(F)cc1
Result: > 100 µM

Problem: Another compound to check: CCOC(=O)c1csc(NC(=O)CCN2CCN(C)CC2)n1
Result: > 100 µM

Problem: Try the compound CCOC(=O)N1CCN(c2c(N)nc(C)[nH]c2=O)CC1
Result: > 100 µM

Problem: Do the same for CNC(=S)N1CCN(C(C)=O)C1=S please
Result: > 100 µM
